Target System: hGLP1R (Homo sapiens, UniProt P43220)
Construct: expressed in transfected cells; host or cells: HEK-293 cells carrying a CRE-luciferase reporter gene
Sequence (P43220 24-463): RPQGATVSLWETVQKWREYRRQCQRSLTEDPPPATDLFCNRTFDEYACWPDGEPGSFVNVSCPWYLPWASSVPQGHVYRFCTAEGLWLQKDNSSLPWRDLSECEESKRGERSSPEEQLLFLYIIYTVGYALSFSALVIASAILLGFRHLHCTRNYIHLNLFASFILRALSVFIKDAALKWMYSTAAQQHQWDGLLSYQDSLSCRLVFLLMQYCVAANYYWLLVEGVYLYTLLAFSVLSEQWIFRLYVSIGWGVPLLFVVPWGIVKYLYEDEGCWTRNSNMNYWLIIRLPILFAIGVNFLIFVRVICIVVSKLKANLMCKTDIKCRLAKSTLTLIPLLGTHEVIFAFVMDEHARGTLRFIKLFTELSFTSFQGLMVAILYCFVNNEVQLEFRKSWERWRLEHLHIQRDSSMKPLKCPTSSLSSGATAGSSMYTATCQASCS
Experiment Description: hGLP1R CreLuc reporter gene assay in 0.5% and 100% plasma
Type: cell-based
Run Conditions: CreLuc reporter gene assay, 0.5% human plasma; read-out: hGLP1R 0.5% hP
Starred links: 1 amine or outer side, 2 acyl side, 3 side chain; linkers in the order of their positions; H or OH if unused. Non-standard residues stand in square brackets, D forms with d. Groups on a side chain read outwards from the residue. No end group written: not given here. *: point of attachment. C20 diacid = O=C(O)CCCCCCCCCCCCCCCCCCC(=O)*; C18 diacid = O=C(O)CCCCCCCCCCCCCCCCC(=O)*; γGlu = O=C(O)[C@H](CCC(=O)[*:2])N[*:1]; εLys = N[C@@H](CCCCN[*:1])C(=O)[*:2]; AEEA = NCCOCCOCC(=O)O; Aib = CC(C)(N)C(=O)O; Ahx = NCCCCCC(=O)O
Recorded EC50 determines the label; the label ranges are LOW = under 0.1 nM, MEDIUM = from 0.1 nM up to 0.3 nM, HIGH = 0.3 nM and over

{"Substance": "H-Y[Aib]EGTFTSDYSI[Aib]LELQAQ[Aib]AFVEWLIK([εLys-γGlu-γGlu-γGlu-γGlu-γGlu-γGlu-C20 diacid])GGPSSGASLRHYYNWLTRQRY-NH2 [Compound 209]", "Group Label": "HIGH"}
{"Substance": "Y[Aib]EGTFTSDYSI[Aib]LEKQAQ[Aib]AFVQWLIK([AEEA-AEEA-γGlu-γGlu-γGlu-γGlu-C20 diacid])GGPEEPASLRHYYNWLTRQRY-NH2 [Compound 77]", "Group Label": "MEDIUM"}
{"Substance": "H-Y[Aib]EGTFTSDYSI[Aib]LEKQAQ[Aib]AFVEWLIK([AEEA-AEEA-γGlu-γGlu-γGlu-γGlu-C20 diacid])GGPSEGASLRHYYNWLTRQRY-NH2 [Compound 287]", "Group Label": "MEDIUM"}
{"Substance": "H-Y[Aib]EGTFTSDYSI[Aib]LEKQAQ[Aib]AFVQWLIK([εLys-γGlu-γGlu-γGlu-γGlu-γGlu-C18 diacid])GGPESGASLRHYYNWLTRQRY-NH2 [Compound 60]", "Group Label": "LOW"}
{"Substance": "H-Y[Aib]EGTFTSDYSI[Aib]LEKQAQ[Aib]AFVQWLIK([εLys-γGlu-γGlu-γGlu-γGlu-γGlu-γGlu-C18 diacid])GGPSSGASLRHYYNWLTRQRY-NH2 [Compound 170]", "Group Label": "LOW"}
{"Substance": "H-Y[Aib]EGTFTSDYSI[Aib]LEEQAQ[Aib]AFVEWLIK([εLys-γGlu-γGlu-γGlu-γGlu-γGlu-C20 diacid])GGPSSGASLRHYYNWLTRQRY-NH2 [Compound 181]", "Group Label": "MEDIUM"}
{"Substance": "H-Y[Aib]EGTFTSDYSI[Aib]LEKQAQ[Aib]AFVQWLIK([AEEA-AEEA-γGlu-γGlu-γGlu-γGlu-γGlu-C20 diacid])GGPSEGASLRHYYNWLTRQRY-NH2 [Compound 228]", "Group Label": "MEDIUM"}
{"Substance": "H-Y[Aib]EGTFTSDYSI[Aib]LEKQAQ[Aib]AFVEWLIK([Ahx-γGlu-γGlu-γGlu-γGlu-γGlu-γGlu-C18 diacid])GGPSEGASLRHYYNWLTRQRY-NH2 [Compound 303]", "Group Label": "MEDIUM"}
{"Substance": "H-Y[Aib]EGTFTSDYSI[Aib]LEKQAQ[Aib]AFVEWLIK([Ahx-γGlu-γGlu-γGlu-γGlu-γGlu-C18 diacid])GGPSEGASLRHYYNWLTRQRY-NH2 [Compound 304]", "Group Label": "HIGH"}
{"Substance": "H-Y[Aib]EGTFTSDYSI[Aib]LEKQAE[Aib]AFVQWLIK([εLys-γGlu-γGlu-γGlu-γGlu-γGlu-C20 diacid])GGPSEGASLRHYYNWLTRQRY-NH2 [Compound 200]", "Group Label": "HIGH"}
{"Substance": "H-Y[Aib]EGTFTSDYSI[Aib]LEKQAE[Aib]AFVEWLIK([γGlu-γGlu-γGlu-γGlu-C20 diacid])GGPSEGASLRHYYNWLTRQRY-NH2 [Compound 280]", "Group Label": "HIGH"}
{"Substance": "H-Y[Aib]EGTFTSDYSI[Aib]LEKQAQ[Aib]AFVQWLIK([γGlu-γGlu-γGlu-γGlu-γGlu-C20 diacid])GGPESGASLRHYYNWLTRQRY-NH2 [Compound 29]", "Group Label": "MEDIUM"}
{"Substance": "Y[Aib]EGTFTSDYSI[Aib]LEKQAQ[Aib]AFVQWLIK([AEEA-AEEA-γGlu-γGlu-γGlu-γGlu-γGlu-C18 diacid])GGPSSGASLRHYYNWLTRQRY-NH2 [Compound 167]", "Group Label": "LOW"}

----------
Target System: hGIPR (Homo sapiens)
Construct: expressed in transfected cells; host or cells: CHO cells carrying a CRE-luciferase reporter gene
Sequence (P48546 22-466): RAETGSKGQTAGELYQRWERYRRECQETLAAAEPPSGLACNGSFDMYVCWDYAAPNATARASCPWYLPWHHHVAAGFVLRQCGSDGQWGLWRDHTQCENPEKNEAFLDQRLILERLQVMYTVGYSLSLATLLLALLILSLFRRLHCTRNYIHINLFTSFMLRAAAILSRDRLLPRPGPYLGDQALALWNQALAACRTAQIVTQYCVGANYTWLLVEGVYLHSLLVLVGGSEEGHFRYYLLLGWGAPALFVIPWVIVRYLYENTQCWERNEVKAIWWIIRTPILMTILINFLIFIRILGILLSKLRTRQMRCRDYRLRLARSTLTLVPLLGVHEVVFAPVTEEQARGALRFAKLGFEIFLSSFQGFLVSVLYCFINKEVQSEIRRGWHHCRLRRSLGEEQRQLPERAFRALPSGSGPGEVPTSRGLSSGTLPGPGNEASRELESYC
Experiment Description: hGIPR CreLuc reporter gene assay in 0.5% and 100% plasma
Assay type: cell-based
Run Conditions: CreLuc reporter gene assay, 0.5% human plasma; read-out: hGIPR 0.5% hP
Description: Example 1: hGLPR/hGIPR/hNPY2R CreLuc Assay in 0.5% and 100% Plasma CHO and HEK-293 recombinant cell lines express a luciferase reporter gene under control of the cAMP responsive element (CRE). […] Following incubation, assay plates are equilibrated to room temperature, followed by addition of 25 μl of Bright-GIo™ Luciferase reagent, incubation at room temperature for 10 minutes and analysis of luminescence (Envision Reader). […]
Starred links: 1 amine or outer side, 2 acyl side, 3 side chain; linkers in the order of their positions; H or OH if unused. Positions of bridges follow the written chain, without caps; N, C: chain ends. Non-standard residues stand in square brackets, D forms with d. Groups on a side chain read outwards from the residue. Chains are numbered I, II in the order given. No end group written: not given here. *: point of attachment. C20 diacid = O=C(O)CCCCCCCCCCCCCCCCCCC(=O)*; C18 diacid = O=C(O)CCCCCCCCCCCCCCCCC(=O)*; γGlu = O=C(O)[C@H](CCC(=O)[*:2])N[*:1]; εLys = N[C@@H](CCCCN[*:1])C(=O)[*:2]; AEEA = NCCOCCOCC(=O)O; Aib = CC(C)(N)C(=O)O
Reported Property: EC50 (nM)

{"Substance": "H-Y[Aib]EGTFTSDYSI[Aib]LEKQAQ[Aib]AFVEWLIK([γGlu-γGlu-γGlu-γGlu-C18 diacid])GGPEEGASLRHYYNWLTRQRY-NH2 [Compound 272]", "Scale Unit": "nM", "Observed Measurement": 0.24}
{"Substance": "H-Y[Aib]EGTFTSDYSI[Aib]LEKQAQ[Aib]AFVEWLIK([εLys-γGlu-γGlu-γGlu-γGlu-γGlu-γGlu-C20 diacid])GGPSEYESLRHYYNWLTRQRY-NH2 [Compound 93]", "Scale Unit": "nM", "Observed Measurement": 0.14}
{"Substance": "H-Y[Aib]EGTFTSDYSI[Aib]LEKQAQ[Aib]AFVEWLIK([AEEA-AEEA-Glu-Glu-Glu-C18 diacid])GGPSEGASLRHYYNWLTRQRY-NH2 [Compound 298]", "Scale Unit": "nM", "Observed Measurement": 0.13}
{"Substance": "H-Y[Aib]EGTFTSDYSI[Aib]LEKQAE[Aib]AFVQWLIK([εLys-γGlu-γGlu-γGlu-γGlu-γGlu-C20 diacid])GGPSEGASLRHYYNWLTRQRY-NH2 [Compound 200]", "Scale Unit": "nM", "Observed Measurement": 0.37}
{"Substance": "I: Y[Aib]EGTFTSDYSI[Aib]LEKQAQ[Aib]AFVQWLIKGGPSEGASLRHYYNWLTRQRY-NH2 / II: {C20 diacid}-EEEEE[εLys] (amide I:28-II:C) [Compound 240]", "Scale Unit": "nM", "Observed Measurement": 0.33}
{"Substance": "H-Y[Aib]EGTFTSDYSI[Aib]LEKQAQ[Aib]AFVEWLIK([εLys-γGlu-γGlu-γGlu-γGlu-γGlu-γGlu-C20 diacid])GGPSSGATLRHYYNWLTRQRY-NH2 [Compound 91]", "Scale Unit": "nM", "Observed Measurement": 0.21}
{"Substance": "H-Y[Aib]EGTFTSDYSI[Aib]LEKQAQ[Aib]AFVQWLIK([εLys-γGlu-γGlu-γGlu-γGlu-γGlu-C18 diacid])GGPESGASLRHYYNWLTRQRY-NH2 [Compound 60]", "Scale Unit": "nM", "Observed Measurement": 0.33}
